assay: Dose range finding study by intravenous route with toxicokinetics; type: in vivo, beagle dogs; conditions: male, beagle, iv; Day 5; 0.08 mg/kg i.v.; dog plasma; mean n = 2; read-out: C15 min
readout.kind: level at […]

• CC(C)C[C@@H]1NC(=O)[C@H](Cc2cccc(NC(=O)CCCS(N)(=O)=O)c2)NC(=O)[C@H](CC(=O)O)NC(=O)[C@H]2CCCN2C(=O)[C@H](CCC(=O)O)NC(=O)[C@@H](NC(=O)[C@H](CCC(N)=O)NC(=O)CN2CCN(C(=O)CN3CCN(CC(=O)O)CCN(CC(=O)O)CCN(CC(=O)O)CC3)CC2)CSCc2cccc(c2)CSC[C@@H](C(N)=O)NC(=O)[C@H](CO)NC(=O)[C@H](Cc2c[nH]c3ccccc23)NC(=O)[C@H]([C@@H](C)O)NC1=O [DPI-4452] = 156 ng/mL

* * *

biological target: CAIX-expressing human HT-29 colorectal cancer cells (Homo sapiens, UniProt Q16790); construct: CAIX-expressing human HT-29 colorectal cancer cells; host or cells: HT-29 human colorectal cancer cells; test: FACS binding assay (IC50 determination, competition with tracer 3BP-2776 or 3BP-4149); conditions: FACS competition on HT-29 cells, Tracer ID 3BP-2776 (10 nM, biotin-labeled), 4° C., 1 hour; read-out: pIC50 category (activity) (converted)
Starred links: 1 amine or outer side, 2 acyl side, 3 side chain; linkers in the order of their positions; H or OH if unused. Positions of bridges follow the written chain, without caps; N, C: chain ends. Non-standard residues stand in square brackets, D forms with d. Residues, ends and D or L forms follow the SMILES beside them. *: point of attachment. NH(CH2)3NHDOTA = O=C(O)CN1CCN(CC(=O)O)CCN(CC(=O)NCCCN*)CCN(CC(=O)O)CC1; DOTA = O=C(O)CN1CCN(CC(=O)O)CCN(CC(=O)*)CCN(CC(=O)O)CC1; mXylylene = c1cc(C[*:1])cc(C[*:2])c1; Trx = NC[C@H]1CC[C@H](C(=O)O)CC1; X2 = O=C(CN1CCC(N[*:1])CC1)[*:2]; tBuAla = CC(C)(C)C[C@H](N)C(=O)O; Isovaleryl = CC(C)CC(=O)*
readout.kind: IC50

* CC(C)CC(=O)N[C@@H](CC(=O)O)C(=O)N[C@H]1CSCc2cccc(c2)CSC[C@@H](C(N)=O)NC(=O)[C@H](CO)NC(=O)[C@H](Cc2c[nH]c3ccccc23)NC(=O)[C@H]([C@@H](C)O)NC(=O)[C@H](CC(C)C)NC(=O)[C@H](Cc2c[nH]c3ccccc23)NC(=O)[C@H](CC(=O)O)NC(=O)[C@H]2CCCN2C(=O)[C@H](CCC(=O)O)NC1=O [3BP-3727] (Isovaleryl-DCE[dP]DWLTWSC-NH2; linker 2-11 via mXylylene) | < 10 nM
* CC(=O)N[C@H](C(=O)N[C@@H](Cc1ccc(O)cc1)C(=O)N[C@H]1CSCc2cccc(c2)CSC[C@@H](C(N)=O)NC(=O)[C@H](CCC(N)=O)NC(=O)[C@H](Cc2c[nH]c3ccccc23)NC(=O)[C@H]([C@@H](C)O)NC(=O)[C@H](CC(C)(C)C)NC(=O)[C@H](Cc2c[nH]c3ccccc23)NC(=O)[C@H](CC(=O)O)NC(=O)CNC(=O)[C@H](CCC(=O)O)NC1=O)C(C)C [3BP-3065] (Ac-VYCEGDW[tBuAla]TWQC-NH2; linker 3-12 via mXylylene) | < 10 nM
* CC(=O)N[C@H](C(=O)N[C@H](Cc1ccc(O)cc1)C(=O)N[C@H]1CSCc2cccc(c2)CSC[C@@H](C(N)=O)NC(=O)[C@H](CCC(N)=O)NC(=O)[C@H](Cc2c[nH]c3ccccc23)NC(=O)[C@H]([C@@H](C)O)NC(=O)[C@H](CC(C)C)NC(=O)[C@H](Cc2c[nH]c3ccccc23)NC(=O)[C@H](CC(=O)O)NC(=O)CNC(=O)[C@H](CCC(=O)O)NC1=O)C(C)C [3BP-3044] (Ac-V[dY]CEGDWLTWQC-NH2; linker 3-12 via mXylylene) | 100 to 794 nM
* CC(C)C[C@@H]1NC(=O)[C@H](Cc2c[nH]c3ccccc23)NC(=O)[C@H](CC(=O)O)NC(=O)[C@H]2CCCN2C(=O)[C@H](CCC(=O)O)NC(=O)[C@@H](NC(=O)[C@H](Cc2ccc(O)cc2)NC(=O)[C@H]2CC[C@H](CNC(=O)CN3CCN(CC(=O)O)CCN(CC(=O)O)CCN(CC(=O)O)CC3)CC2)CSCc2cccc(c2)CSC[C@@H](C(N)=O)NC(=O)[C@H](CO)NC(=O)[C@H](Cc2c[nH]c3ccccc23)NC(=O)[C@H]([C@@H](C)O)NC1=O [3BP-3868] ({DOTA-Trx}-YCE[dP]DWLTWSC-NH2; linker 2-11 via mXylylene) | < 10 nM
* CC(=O)N[C@@H](Cc1ccc(O)cc1)C(=O)N[C@H]1CSCc2cccc(c2)CSC[C@@H](C(N)=O)NC(=O)[C@H](CCC(=O)NCCCNC(=O)CN2CCN(CC(=O)O)CCN(CC(=O)O)CCN(CC(=O)O)CC2)NC(=O)[C@H](Cc2c[nH]c3ccccc23)NC(=O)[C@H]([C@@H](C)O)NC(=O)[C@H](CC(C)C)NC(=O)[C@H](Cc2c[nH]c3ccccc23)NC(=O)[C@H](CC(=O)O)NC(=O)[C@H]2CCCN2C(=O)[C@H](CCC(=O)O)NC1=O [3BP-3841] (Ac-YCE[dP]DWLTWE(NH(CH2)3NHDOTA)C-NH2; linker 2-11 via mXylylene) | < 10 nM
* CC(C)C[C@@H]1NC(=O)[C@H](Cc2c[nH]c3ccccc23)NC(=O)[C@H](CO)NC(=O)[C@H]2CCCN2C(=O)[C@H](CCC(=O)O)NC(=O)[C@@H](NC(=O)[C@H](Cc2ccc(O)cc2)NC(=O)[C@@H](NC(=O)CN2CCC(NC(=O)CN3CCN(CC(=O)O)CCN(CC(=O)O)CCN(CC(=O)O)CC3)CC2)C(C)C)CSCc2cccc(c2)CSC[C@@H](C(N)=O)NC(=O)[C@H](CO)NC(=O)[C@H](Cc2c[nH]c3ccccc23)NC(=O)[C@H]([C@@H](C)O)NC1=O [3BP-3595] ({DOTA}-[X2]VYCE[dP]SWLTWSC-NH2; linker 4-13 via mXylylene) | < 10 nM
* CC(=O)N[C@H](C(=O)N[C@@H](Cc1ccc(O)cc1)C(=O)N[C@H]1CSCc2cccc(c2)CSC[C@@H](C(N)=O)NC(=O)[C@H](C)NC(=O)[C@H](Cc2c[nH]c3ccccc23)NC(=O)[C@H]([C@@H](C)O)NC(=O)[C@H](CC(C)C)NC(=O)[C@H](Cc2c[nH]c3ccccc23)NC(=O)[C@H](CC(=O)O)NC(=O)[C@@H](C)NC(=O)[C@H](CCC(=O)O)NC1=O)C(C)C [3BP-3280] (Ac-VYCE[dA]DWLTWAC-NH2; linker 3-12 via mXylylene) | < 10 nM
* CC(=O)N[C@H](C(=O)N[C@@H](Cc1ccc(O)cc1)C(=O)N[C@H]1CSCc2cccc(c2)CSC[C@@H](C(N)=O)NC(=O)[C@H](CO)NC(=O)[C@H](Cc2c[nH]c3ccccc23)NC(=O)[C@@H]2CCC(=O)NCCCC[C@H](NC1=O)C(=O)N1CCC[C@@H]1C(=O)N[C@@H](CC(=O)O)C(=O)N[C@@H](Cc1c[nH]c3ccccc13)C(=O)N[C@@H](CC(C)C)C(=O)N2)C(C)C [3BP-3888] (Ac-VYCK[dP]DWLEWSC-NH2; linker 3-12 via mXylylene; lactam 4-9) | 10 to 79.4 nM
* CC(C)CC(=O)N[C@@H](Cc1ccc(O)cc1)C(=O)N[C@H]1CSCc2cccc(c2)CSC[C@@H](C(N)=O)NC(=O)[C@H](CO)NC(=O)[C@H](Cc2c[nH]c3ccccc23)NC(=O)[C@H]([C@@H](C)O)NC(=O)[C@H](CC(C)C)NC(=O)[C@H](Cc2c[nH]c3ccccc23)NC(=O)[C@H](CC(=O)O)NC(=O)[C@H]2CCCN2C(=O)[C@H](CCC(=O)O)NC1=O [3BP-3569] (Isovaleryl-YCE[dP]DWLTWSC-NH2; linker 2-11 via mXylylene) | < 10 nM

* * *

assay: Extended single-dose toxicity study including safety pharmacology endpoints, i.v. bolus (GLP); assay type: in vivo, beagle dogs; settings: beagle, dog, plasma, iv, 400 ug/kg; Male; 400 μg/kg single i.v. bolus; harmonic mean
readout.kind: half-life

- CC(C)C[C@@H]1NC(=O)[C@H](Cc2cccc(NC(=O)CCCS(N)(=O)=O)c2)NC(=O)[C@H](CC(=O)O)NC(=O)[C@H]2CCCN2C(=O)[C@H](CCC(=O)O)NC(=O)[C@@H](NC(=O)[C@H](CCC(N)=O)NC(=O)CN2CCN(C(=O)CN3CCN(CC(=O)O)CCN(CC(=O)O)CCN(CC(=O)O)CC3)CC2)CSCc2cccc(c2)CSC[C@@H](C(N)=O)NC(=O)[C@H](CO)NC(=O)[C@H](Cc2c[nH]c3ccccc23)NC(=O)[C@H]([C@@H](C)O)NC1=O: 23.7 min
